test system: A549; experiment: Cytotoxicity against human A549 cells after 72 hrs by MTT assay; format: functional; settings: A549, 72 h, read-out: ED50 (the source's name)
Each entry below carries its reported EC50.
Report as a plain number; the unit µM is understood.

# count of solved cases: 3
[
  {
    "STRUCTURE NOTATION": "COc1ccc(Nc2cc(Cc3ccccc3)oc(=O)c2)cc1",
    "UNIT SPEC": "µM",
    "EC50": 1.62
  },
  {
    "STRUCTURE NOTATION": "COc1ccc(Nc2cc(-c3ccc4ccccc4c3)oc(=O)c2)cc1",
    "UNIT SPEC": "µM",
    "EC50": 0.15
  },
  {
    "STRUCTURE NOTATION": "CCCCCc1cc(Nc2ccc(OC)cc2)cc(=O)o1",
    "UNIT SPEC": "µM",
    "EC50": 4.42
  }
]

stdin: Find the recorded EC50 belonging to `Cc1ccc(Nc2cc(-c3ccccc3)oc(=O)c2)cc1` and report it.
stdout: 0.067

###

tested on: SK-BR-3; assay: Cytotoxicity against human SKBR3 cells after 72 hrs by MTT assay; type: functional; conditions: SK-BR-3, 72 h, read-out: ED50 (the source's name)
OBSERVATION TYPE: EC50

[
  {
    "STRUCTURE NOTATION": "COc1cccc(Nc2cc(-c3ccccc3)oc(=O)c2)c1",
    "OBSERVED RESULT": "740 nM"
  },
  {
    "STRUCTURE NOTATION": "COc1ccc(Nc2cc(-c3ccco3)oc(=O)c2)cc1",
    "OBSERVED RESULT": "1760 nM"
  },
  {
    "STRUCTURE NOTATION": "COc1ccc(Nc2cc(C)oc(=O)c2)cc1",
    "OBSERVED RESULT": "> 30000 nM"
  },
  {
    "STRUCTURE NOTATION": "O=c1cc(NC2CC2)cc(-c2ccccc2)o1",
    "OBSERVED RESULT": "> 30000 nM"
  },
  {
    "STRUCTURE NOTATION": "O=c1cc(N2CCCCC2)cc(-c2ccccc2)o1",
    "OBSERVED RESULT": "> 30000 nM"
  }
]

stdin: // returns reported EC50 for input `COc1ccc(Nc2cc(C3CCCC3)oc(=O)c2)cc1`
stdout: 4730 nM

stdin: What would you report for `COc1ccccc1Nc1cc(-c2ccccc2)oc(=O)c1` ?
stdout: 540 nM

stdin: And the next one, `COc1ccc(Nc2cc(/C=C/c3ccccc3)oc(=O)c2)cc1` ?
stdout: 83 nM

stdin: Please answer likewise for `O=c1cc(NC2CCCCC2)cc(-c2ccccc2)o1`
stdout: 10900 nM

stdin: Another compound: `Cc1ccc(Nc2cc(-c3ccccc3)oc(=O)c2)cc1`
stdout: 90 nM

stdin: Can you handle `COc1ccc(Nc2cc(-c3ccc4ccccc4c3)oc(=O)c2)cc1` next?
stdout: 130 nM

stdin: Follow-up item: `O=c1cc(Nc2ccccc2)cc(-c2ccccc2)o1`
stdout: 130 nM

stdin: What about `O=c1cc(Nc2ccc(Br)cc2)cc(-c2ccccc2)o1` ?
stdout: 400 nM

stdin: And `CCCCCc1cc(Nc2ccc(OC)cc2)cc(=O)o1` ?
stdout: 4930 nM

stdin: # iterate: `O=c1cc(NC2CCCCC2)cc(/C=C/c2ccccc2)o1`
stdout: 1530 nM
